Sourced from paper PMC11025614

- EXPERIMENTAL_DETAILS: PopPK modeling
- Assay type: in vivo, human
- MEASUREMENT_CONDITIONS: female, human, blood, oral
MEASURED_METRIC: Vd
Number first, unit second.

Entry `CO[C@H]1C[C@@H]2CC[C@@H](C)[C@@](O)(O2)C(=O)C(=O)N2CCCC[C@H]2C(=O)O[C@H]([C@H](C)C[C@@H]2CC[C@@H](O)[C@H](OC)C2)CC(=O)[C@H](C)/C=C(\C)[C@@H](O)[C@@H](OC)C(=O)[C@H](C)C[C@H](C)/C=C/C=C/C=C/1C` has what Vd? 81.3 L

----------
- EXPERIMENTAL_DETAILS: PopPK modeling
- Assay type: in vivo, human
- MEASUREMENT_CONDITIONS: female, human, blood, oral, 5 mg/day
MEASURED_METRIC: Vd (L)
One number for each entry, in L.

Entry `CO[C@H]1C[C@@H]2CC[C@@H](C)[C@@](O)(O2)C(=O)C(=O)N2CCCC[C@H]2C(=O)O[C@H]([C@H](C)C[C@@H]2CC[C@@H](O)[C@H](OC)C2)CC(=O)[C@H](C)/C=C(\C)[C@@H](O)[C@@H](OC)C(=O)[C@H](C)C[C@H](C)/C=C/C=C/C=C/1C` has what Vd? 33.7
